In this section, each of the sequences is paired with its reported total protein half-life in vivo.
Assay: total protein half-life in vivo (active degradation + dilution); higher = more stable protein
Conditions: E. coli NCM3722 delta-lon; growth: N-lim chemostat; doubling time 6 h
Give the quantity in h, number only.

Worked cases, answers included:
sequence text	total protein half-life in vivo / h
MNKVVLLCRPGFEKECAAEITDKAGQREIFGFARVKENAGYVIYECYQPDDGDKLIRELPFSSLIFARQWFVVGELLQHLPPEDRITPIVGMLQGVVEKGGELRVEVADTNESKELLKFCRKFTVPLRAALRDAGVLANYETPKRPVVHVFFIAPGCCYTGYSYSNNNSPFYMGIPRLKFPADAPSRSTLKLEEAFHVFIPADEWDERLANGMWAVDLGACPGGWTYQLVKRNMWVYSVDNGPMAQSLMDTGQVTWLREDGFKFRPTRSNISWMVCDMVEKPAKVAALMAQWLVNGWCRETIFNLKLPMKKRYEEVSHNLAYIQAQLDEHGINAQIQARQLYHDREEVTVHVRRIWAAVGGRRDER [P0ADR6]	5.75
MKHDHFVVQSPDKPAQQLLLLFHGVGDNPVAMGEIGNWFAPLFPDALVVSVGGAEPSGNPAGRQWFSVQGITEDNRQARVDAIMPTFIETVRYWQKQSGVGANATALIGFSQGAIMVLESIKAEPGLASRVIAFNGRYASLPETASTATTIHLIHGGEDPVIDLAHAVAAQEALISAGGDVTLDIVEDLGHAIDNRSMQFALDHLRYTIPKHYFDEALSGGKPGDDDVIEMM	3.46

Now for the sequence whose total protein half-life in vivo we want.
For MLKKFRGMFSNDLSIDLGTANTLIYVKGQGIVLNEPSVVAIRQDRAGSPKSVAAVGHDAKQMLGRTPGNIAAIRPMKDGVIADFFVTEKMLQHFIKQVHSNSFMRPSPRVLVCVPVGATQVERRAIRESAQGAGAREVFLIEEPMAAAIGAGLPVSEATGSMVVDIGGGTTEVAVISLNGVVYSSSVRIGGDRFDEAIINYVRRNYGSLIGEATAERIKHEIGSAYPGDEVREIEVRGRNLAEGVPRGFTLNSNEILEALQEPLTGIVSAVMVALEQCPPELASDISERGMVLTGGGALLRNLDRLLMEETGIPVVVAEDPLTCVARGGGKALEMIDMHGGDLFSEE [P0A9X4] , what is its reported total protein half-life in vivo?
6.29

---

In this section, each of the sequences is paired with its reported total protein half-life in vivo.
Test: total protein half-life in vivo (active degradation + dilution); higher = more stable protein
Conditions: wild type E. coli NCM3722; growth: P-lim chemostat; doubling time 6 h
Give the quantity in h, number only.

Worked cases, answers included:
sequence text	quantity name	reported result
MSAVLTAEQALKLVGEMFVYHMPFNRALGMELERYEKEFAQLAFKNQPMMVGNWAQSILHGGVIASALDVAAGLVCVGSTLTRHETISEDELRQRLSRMGTIDLRVDYLRPGRGERFTATSSLLRAGNKVAVARVELHNEEQLYIASATATYMVG [P0ADP2]	total protein half-life in vivo	5
MNYRIIPVTAFSQNCSLIWCEQTRLAALVDPGGDAEKIKQEVDDSGLTLMQILLTHGHLDHVGAAAELAQHYGVPVFGPEKEDEFWLQGLPAQSRMFGLEECQPLTPDRWLNEGDTISIGNVTLQVLHCPGHTPGHVVFFDDRAKLLISGDVIFKGGVGRSDFPRGDHNQLISSIKDKLLPLGDDVIFIPGHGPLSTLGYERLHNPFLQDEMPVW	total protein half-life in vivo	5.05

For MSNITIYHNPACGTSRNTLEMIRNSGTEPTIIHYLETPPTRDELVKLIADMGISVRALLRKNVEPYEELGLAEDKFTDDRLIDFMLQHPILINRPIVVTPLGTRLCRPSEVVLEILPDAQKGAFSKEDGEKVVDEAGKRLK [P0AB96] , what is its reported total protein half-life in vivo?
5.09

Now the same for `MTTYDRNRNAITTGSRVMVSGTGHTGKILSIDTEGLTAEQIRRGKTVVVEGCEEKLAPLDLIRLGMN`
4.52

Now the same for `MSEALLNAGRQTLMLELQEASRLPERLGDDFVRAANIILHCEGKVVVSGIGKSGHIGKKIAATLASTGTPAFFVHPAEALHGDLGMIESRDVMLFISYSGGAKELDLIIPRLEDKSIALLAMTGKPTSPLGLAAKAVLDISVEREACPMHLAPTSSTVNTLMMGDALAMAVMQARGFNEEDFARSHPAGALGARLLNKVHHLMRRDDAIPQVALTASVMDAMLELSRTGLGLVAVCDAQQQVQGVFTDGDLRRWLVGGGALTTPVNEAMTVGGTTLQSQSRAIDAKEILMKRKITAAPVVDENGKLTGAINLQDFYQAGII`
5.2

Now the same for MNKSQLIDKIAAGADISKAAAGRALDAIIASVTESLKEGDDVALVGFGTFAVKERAARTGRNPQTGKEITIAAAKVPSFRAGKALKDAVN [P0ACF4]
4.6

Now the same for `MTPTIELICGHRSIRHFTDEPISEAQREAIINSARATSSSSFLQCSSIIRITDKALREELVTLTGGQKHVAQAAEFWVFCADFNRHLQICPDAQLGLAEQLLLGVVDTAMMAQNALIAAESLGLGGVYIGGLRNNIEAVTKLLKLPQHVLPLFGLCLGWPADNPDLKPRLPASILVHENSYQPLDKGALAQYDEQLAEYYLTRGSNNRRDTWSDHIRRTIIKESRPFILDYLHKQGWATR`
5.01

meta.source: the supplement of paper PMC11246515
